- experimentalTarget: FGFR3 (UniProt P22607)
- Sequence (P22607 whole entry, looked up): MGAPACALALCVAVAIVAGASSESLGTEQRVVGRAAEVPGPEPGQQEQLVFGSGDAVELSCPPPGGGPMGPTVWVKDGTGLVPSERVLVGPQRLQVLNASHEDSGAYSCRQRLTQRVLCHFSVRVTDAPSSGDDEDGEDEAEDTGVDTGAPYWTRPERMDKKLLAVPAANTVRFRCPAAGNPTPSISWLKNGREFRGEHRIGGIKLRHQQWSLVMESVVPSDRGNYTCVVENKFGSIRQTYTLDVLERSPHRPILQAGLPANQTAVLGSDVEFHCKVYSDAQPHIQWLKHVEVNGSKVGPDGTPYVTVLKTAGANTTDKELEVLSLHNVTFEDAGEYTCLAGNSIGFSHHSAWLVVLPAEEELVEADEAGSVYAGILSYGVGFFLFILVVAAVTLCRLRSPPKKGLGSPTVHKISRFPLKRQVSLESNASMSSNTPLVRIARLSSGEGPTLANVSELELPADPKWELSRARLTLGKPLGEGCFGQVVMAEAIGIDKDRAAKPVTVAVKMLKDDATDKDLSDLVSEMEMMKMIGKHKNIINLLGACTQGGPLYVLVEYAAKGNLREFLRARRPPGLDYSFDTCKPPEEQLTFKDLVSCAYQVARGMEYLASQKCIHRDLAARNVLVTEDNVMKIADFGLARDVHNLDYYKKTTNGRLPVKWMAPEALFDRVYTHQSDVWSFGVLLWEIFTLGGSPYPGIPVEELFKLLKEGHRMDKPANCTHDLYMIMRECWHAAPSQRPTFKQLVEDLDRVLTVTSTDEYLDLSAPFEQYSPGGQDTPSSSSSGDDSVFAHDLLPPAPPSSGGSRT
- procedureText: phosphorylation enrichment, bacterial display (enrichment ratio); higher = better substrate or ligand; peptides without Tyr show the background;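 also: 11-residue human phosphosite peptides and single-mutation variants displayed on the E. coli surface, counted by deep sequencing, each peptide's frequency after selection divided by its frequency in the unselected input library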;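 also: frequency after pTyr selection over input frequency; kinase dosed for 20-30% of maximal phosphorylation in three min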
The entries below are paired with their reported phosphorylation enrichment.
parameterMeasured: phosphorylation enrichment

{"residueSequence": "QKINKYLTVPA [SLC9A1_Y683_N682K]", "parameterMeasured": "phosphorylation enrichment", "testValue": 0.854}
{"residueSequence": "RRIHSYRSHLW [VHL_Y112_G114S]", "parameterMeasured": "phosphorylation enrichment", "testValue": 0.778}
{"residueSequence": "FPKARYRWLVL [APTX_Y214_H215R_YF]", "parameterMeasured": "phosphorylation enrichment", "testValue": 0.534}
{"residueSequence": "MKNQKYGRIIM [HSD17B4_Y143_K140N]", "parameterMeasured": "phosphorylation enrichment", "testValue": 0.386}
{"residueSequence": "VQNIVYHTASI [CYP39A1_Y102_R103H]", "parameterMeasured": "phosphorylation enrichment", "testValue": 0.408}
{"residueSequence": "SPQAHYRLSAF [ADAMTS9_Y100_S96P]", "parameterMeasured": "phosphorylation enrichment", "testValue": 0.427}
{"residueSequence": "PRLMLYNPTTY [EGFR_Y270_P266R]", "parameterMeasured": "phosphorylation enrichment", "testValue": 0.776}
{"residueSequence": "AGREIYESDKC [TTN_Y4424]", "parameterMeasured": "phosphorylation enrichment", "testValue": 0.819}
{"residueSequence": "DGDTRYSTFSE [TKTL1_Y318]", "parameterMeasured": "phosphorylation enrichment", "testValue": 0.669}
{"residueSequence": "YQEPVYSVAFS [TBL1X_Y509_H504Y]", "parameterMeasured": "phosphorylation enrichment", "testValue": 5.72}
{"residueSequence": "LNLKEYNLVGG [GNAQ_Y356]", "parameterMeasured": "phosphorylation enrichment", "testValue": 0.698}
{"residueSequence": "KDLPNYNWKSF [KISS1_Y112_N115K]", "parameterMeasured": "phosphorylation enrichment", "testValue": 0.598}
{"residueSequence": "SDVDLYQVRTA [PSMD9_Y70]", "parameterMeasured": "phosphorylation enrichment", "testValue": 0.505}
{"residueSequence": "DYTEAYNPKIK [CLK1_Y305]", "parameterMeasured": "phosphorylation enrichment", "testValue": 0.592}
{"residueSequence": "QHVPDYRQNVY [PCDHGA1_Y890]", "parameterMeasured": "phosphorylation enrichment", "testValue": 0.626}
{"residueSequence": "QKNVSYVSRVS [TASOR_Y1043_T1046R]", "parameterMeasured": "phosphorylation enrichment", "testValue": 0.894}
{"residueSequence": "VHHLVYHHHHH [CACNA1H_Y519]", "parameterMeasured": "phosphorylation enrichment", "testValue": 1.23}
{"residueSequence": "HDRNTYEKYLG [TF_Y666]", "parameterMeasured": "phosphorylation enrichment", "testValue": 0.909}
{"residueSequence": "GRPMDYQVSIT [OTOF_Y254]", "parameterMeasured": "phosphorylation enrichment", "testValue": 0.51}
{"residueSequence": "QRTMKYTTATE [MCCC1_Y41_G46E]", "parameterMeasured": "phosphorylation enrichment", "testValue": 1.11}
{"residueSequence": "HPWPRYTTRAP [FNDC1_Y1281_Q1280R]", "parameterMeasured": "phosphorylation enrichment", "testValue": 0.619}
{"residueSequence": "MEVGQYIFVKC [CYBB_Y324]", "parameterMeasured": "phosphorylation enrichment", "testValue": 2.43}
{"residueSequence": "DSFATYFRWVL [H2BW1_Y84_R87W]", "parameterMeasured": "phosphorylation enrichment", "testValue": 1.98}
{"residueSequence": "EESREYDRLYE [PIK3R1_Y463_K459E]", "parameterMeasured": "phosphorylation enrichment", "testValue": 1.19}
{"residueSequence": "FEELVYETVRV [FSHB_Y76_K72E]", "parameterMeasured": "phosphorylation enrichment", "testValue": 1.82}
{"residueSequence": "PPTYRYERGSR [INPPL1_Y663]", "parameterMeasured": "phosphorylation enrichment", "testValue": 0.419}
{"residueSequence": "FRARAYGFRGP [CHGA_Y381]", "parameterMeasured": "phosphorylation enrichment", "testValue": 0.427}
{"residueSequence": "VMICAYLLHRG [PTEN_Y138]", "parameterMeasured": "phosphorylation enrichment", "testValue": 0.778}
{"residueSequence": "PQQLWYTHKKK [UBTF_Y207_E210K]", "parameterMeasured": "phosphorylation enrichment", "testValue": 0.589}
{"residueSequence": "NFADPYRQLQF [CTNND2_Y503_YF]", "parameterMeasured": "phosphorylation enrichment", "testValue": 0.557}
{"residueSequence": "RFLRGYEQDAY [HLA-A_Y137_R138E]", "parameterMeasured": "phosphorylation enrichment", "testValue": 0.57}
{"residueSequence": "ILKPDYQPLAV [HYDIN_Y1072_I1077V]", "parameterMeasured": "phosphorylation enrichment", "testValue": 0.667}
{"residueSequence": "YTTIHYNYMCN [TP53_Y234_C229Y]", "parameterMeasured": "phosphorylation enrichment", "testValue": 3.35}
{"residueSequence": "VHYLVYHHHHH [CACNA1H_Y519_H516Y]", "parameterMeasured": "phosphorylation enrichment", "testValue": 1.07}
{"residueSequence": "PDDPSYSLVDD [PSTPIP2_Y323_N322S]", "parameterMeasured": "phosphorylation enrichment", "testValue": 1.08}
{"residueSequence": "KPPFSYNALIM [FOXG1_Y186]", "parameterMeasured": "phosphorylation enrichment", "testValue": 0.628}
{"residueSequence": "HSREDYFECFQ [ZIM2_Y411_Q408R]", "parameterMeasured": "phosphorylation enrichment", "testValue": 6.79}
{"residueSequence": "AAAAMYTFLPD [MYORG_Y36]", "parameterMeasured": "phosphorylation enrichment", "testValue": 12}
{"residueSequence": "LLIMEYAKFGS [RET_Y806_V804M_YF]", "parameterMeasured": "phosphorylation enrichment", "testValue": 0.697}
{"residueSequence": "ILGLEYSLRLP [HELZ2_Y1304_V1308L]", "parameterMeasured": "phosphorylation enrichment", "testValue": 0.942}
{"residueSequence": "EVQKDYEHLFK [PAM16_Y77_N76D]", "parameterMeasured": "phosphorylation enrichment", "testValue": 0.582}
{"residueSequence": "RPSRWYQFRVA [ANOS1_Y259]", "parameterMeasured": "phosphorylation enrichment", "testValue": 0.887}
{"residueSequence": "DENWFYTRAAS [RPS19_Y54]", "parameterMeasured": "phosphorylation enrichment", "testValue": 0.673}
{"residueSequence": "FFRDGYMPRQF [GSS_Y270_YF]", "parameterMeasured": "phosphorylation enrichment", "testValue": 0.55}
